molecular target: PfMCA-2 (metacaspase-2) (Plasmodium falciparum, UniProt Q8IL84); construct: catalytic domain; test: fluorogenic Z-GRR-AMC cleavage assay with recombinant enzyme, Michaelis-Menten nonlinear regression
Sequence (Q8IL84 1650-2020): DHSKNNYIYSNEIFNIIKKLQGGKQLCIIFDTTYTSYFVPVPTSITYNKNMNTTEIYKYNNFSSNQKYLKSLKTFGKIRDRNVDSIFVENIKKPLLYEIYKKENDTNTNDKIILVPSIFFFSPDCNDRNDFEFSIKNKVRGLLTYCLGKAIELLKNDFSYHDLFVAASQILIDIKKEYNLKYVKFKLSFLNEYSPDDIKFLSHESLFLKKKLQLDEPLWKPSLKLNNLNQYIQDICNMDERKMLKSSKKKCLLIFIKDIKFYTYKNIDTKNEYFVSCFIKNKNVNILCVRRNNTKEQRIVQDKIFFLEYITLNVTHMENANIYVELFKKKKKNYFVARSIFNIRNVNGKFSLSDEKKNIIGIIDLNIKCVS
Would you kindly list pKi for each of these compounds?
// scale note: pKi = -log10(conc_M); give the bare number

Can you look up the measured pKi of CCCc1ccc(CNc2ccc3oc(CC4CCCCC4)nc3c2)cc1 [C-533] for me? 8.79

Can you look up the measured pKi of CC(C)c1ccc(CNc2ccc3oc(CC4CCCCC4)nc3c2)cc1 [C-532] for me? 8.68
